target_desc: BACE1 (Homo sapiens, UniProt P56817)
Construct: endogenous in cells; host or cells: HEK293 stably transfected with human APP695 wt
Sequence (P56817 46-501): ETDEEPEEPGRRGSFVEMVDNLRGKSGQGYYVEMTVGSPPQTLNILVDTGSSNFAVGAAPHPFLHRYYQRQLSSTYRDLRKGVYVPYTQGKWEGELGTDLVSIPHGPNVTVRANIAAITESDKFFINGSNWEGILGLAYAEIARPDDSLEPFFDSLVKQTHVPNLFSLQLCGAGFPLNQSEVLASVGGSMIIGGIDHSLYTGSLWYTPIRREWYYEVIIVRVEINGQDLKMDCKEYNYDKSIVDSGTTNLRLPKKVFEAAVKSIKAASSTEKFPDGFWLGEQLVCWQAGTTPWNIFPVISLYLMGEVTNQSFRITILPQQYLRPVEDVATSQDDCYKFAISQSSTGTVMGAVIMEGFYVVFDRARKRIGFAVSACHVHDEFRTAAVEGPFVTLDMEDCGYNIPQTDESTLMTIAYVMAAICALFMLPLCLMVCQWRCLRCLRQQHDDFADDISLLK
protocol: Cellular Aβ-lowering assay b): HEK293 APP Abeta 40 AlphaLISA Assay
Type: cell-based
assay_conditions: assay b): HEK293 APP cells, Aβ 40 in supernatant by AlphaLISA, 18-20 hrs incubation
pIC50: −log10 of the molar value.
readout: pIC50

INSERT INTO assay_data (molecule, recorded_result) VALUES
  ('CC1(C)OCC(N)=N[C@](C)(c2cc(-c3nc4ccc(Cl)cc4o3)c(F)cc2F)C1(F)F', 6.74),
  ('CC1(C)OCC(N)=N[C@](C)(c2cc(C#Cc3cc(C#N)ccn3)ccc2F)C1(F)F', 6.94),
  ('CC1(C)OCC(N)=N[C@](C)(c2cc(C#Cc3ncc(Cl)cn3)ccc2F)C1(F)F', 7.89),
  ('CC1(C)OCC(N)=N[C@](C)(c2cc(C#Cc3cccc(Cl)c3)c(F)cc2F)C1(F)F', 5.90),
  ('CC1(C)OCC(N)=N[C@](C)(c2cc(-c3nc4cc(F)c(F)cc4o3)c(F)cc2F)C1(F)F', 6.26),
  ('CC1(C)OCC(N)=N[C@](C)(c2cc(-c3cnn(-c4ccc(F)cc4)c3)c(F)cc2F)C1(F)F', 6.03);

###

Listed next: entries and their corresponding IC50.
target_desc: BACE1 (Homo sapiens, UniProt P56817)
Construct: endogenous in cells; host or cells: HEK293 stably transfected with human APP695 wt
protocol: Cellular Aβ-lowering assay b): HEK293 APP Abeta 40 AlphaLISA Assay
Format: cell-based
assay_conditions: assay b): HEK293 APP cells, Aβ 40 in supernatant by AlphaLISA, 18-20 hrs incubation
Counter-ions that a name gives are not always drawn.
readout: IC50 (nM)

INSERT INTO results (molecule, recorded_result) VALUES
  ('COc1ncc(-c2cc([C@@]3(C)N=C(N)COC(C)(C)C3(F)F)c(F)cc2F)cn1 [Example 30, formate]', 75),
  ('CC1(C)OCC(N)=N[C@](C)(c2cc(C#Cc3ccc(C#N)cn3)ccc2F)C1(F)F [Example 33]', 3),
  ('CC1(C)OCC(N)=N[C@](C)(c2cc(C#Cc3ccc(Cl)nn3)ccc2F)C1(F)F [Example 37]', 145),
  ('CC(C)(C)NS(=O)(=O)c1cccc(-c2ccc(F)c([C@@]3(C)N=C(N)COC(C)(C)C3(F)F)c2)c1 [Example 15]', 4000),
  ('CC1(C)OCC(N)=N[C@](C)(c2cc(C#Cc3ccccn3)ccc2F)C1(F)F [Example 39]', 360),
  ('CC1(C)OCC(N)=N[C@](C)(c2cc(-c3nc4ccc(Cl)cc4s3)ccc2F)C1(F)F [Example 21, hydrochloride]', 7430),
  ('CC1(C)OCC(N)=N[C@](C)(c2cc(-c3cn(-c4ccc(C(F)(F)F)cn4)cn3)ccc2F)C1(F)F [Example 23]', 220);

###

target_desc: BACE1 (Homo sapiens)
Construct: endogenous in cells; host or cells: HEK293 stably transfected with human APP695 wt
protocol: Cellular Aβ-lowering assay b): HEK293 APP Abeta 40 AlphaLISA Assay
Assay type: cell-based
assay_conditions: assay b): HEK293 APP cells, Aβ 40 in supernatant by AlphaLISA, 18-20 hrs incubation
Description: b) HEK293 APP: Abeta 40 AlphaLISA Assay […] In a Perkin-Elmer White Optiplate-384 (Cat#6007290), […] culture supernatants were combined with 2 μl of a 10X AlphaLISA Anti-hAβ Acceptor beads+Biotinylated Antibody Anti-Aβ 1-40 Mix (50 μg/mL/5 nM). […] Light Emission at 615 nm was then recorded using EnVision-Alpha Reader. Levels of Aβ 40 in the culture supernatants were calculated as percentage of maximum signal (cells treated with 1% DMSO without inhibitor). […]
readout: IC50 (nM)

INSERT INTO measurements (compound, unit_descriptor, recorded_result) VALUES
  ('COc1cnc(C#Cc2ccc(F)c([C@@]3(C)N=C(N)COC(C)(C)C3(F)F)c2)cn1 [Example 40]', 'nM', 480),
  ('CC1(C)OCC(N)=N[C@](C)(c2cc(C#Cc3ccnc(Cl)c3)ccc2F)C1(F)F [Example 35]', 'nM', 79),
  ('CC(C)(C)COS(=O)(=O)c1cccc(-c2ccc(F)c([C@@]3(C)N=C(N)COC(C)(C)C3(F)F)c2)c1 [Example 12]', 'nM', 5180),
  ('CC1(C)OCC(N)=N[C@](C)(c2cc(-c3cn(-c4ccccn4)cn3)ccc2F)C1(F)F [Example 22]', 'nM', 200);
